Here, each record is paired with measured pIC50 data.
system: S. aureus (ATCC BAA-44); settings: ATCC BAA-44, 18 h
Where no end group is shown, it is not given here.
Field pIC50 (float): negative decimal logarithm of the concentration in molar.

>>> print(df.to_string())
                substance  assay_result
0  RWRWRW-NH2 [(RW)3—NH2]          5.10

query: Can you look up the measured pIC50 of RWRWRWRW-NH2 [(RW)4—NH2] for me?
result: 5.29
